Provenance of the data: ChEMBL document CHEMBL1201862

# System: UACC-62
# protocol-text: NCI tumour cell line growth inhibition, 48 h
The source made the active and inactive calls. Rule as the data show it: active = GI50 up to about 1.1 µM and inactive = higher.

# compound, GI50
measured = [
    ("CS/C(=N\\Nc1cnc2ccccc2n1)NS(=O)(=O)c1cc(C)c(Cl)cc1Cl", "50.7 µM (inactive)"),
    ("O=C1[C@@H]2C(c3ccccc3[N+](=O)[O-])=NO[C@@H]2C(=O)N1c1ccc(Cc2ccc(N3C(=O)[C@H]4C(c5ccccc5[N+](=O)[O-])=NO[C@H]4C3=O)cc2)cc1", "> 100 µM (inactive)"),
    ("Cn1ccc(C(=O)NCCN(CCNC(=O)c2ccn(C)c(=O)c2O)CCNC(=O)c2ccn(C)c(=O)c2O)c(O)c1=O", "> 100 µM (inactive)"),
    ("O=C(/N=N/c1ccc([N+](=O)[O-])cc1)NNc1ccc([N+](=O)[O-])cc1", "10.3 µM (inactive)"),
    ("Cc1cc(C)n(C(=O)CSc2nnc(SCC(=O)n3nc(C)cc3C)s2)n1", "> 100 µM (inactive)"),
    ("CCN(CC)CCn1nc(N)c2nc3ccccc3nc21", "> 100 µM (inactive)"),
    ("Cc1cc(Cl)nc2nc(Cl)c(N)cc12", "2.37 µM (inactive)"),
    ("COC(=O)c1c2n(c3ccccc13)C[C@H]1OC(C)(C)O[C@@H]21", "> 100 µM (inactive)"),
    ("Cc1nc2c(O)cc3c4c(n(Cc5ccccc5)c3c2nc1C)C(=O)CCC4", "24.5 µM (inactive)"),
    ("c1ccc(N/N=C2\\CC(c3ccccc3)Oc3ccccc32)cc1 (centres undefined)", "40.6 µM (inactive)"),
    ("CSc1ccc(NC(=O)Nc2cc(C)ccn2)cc1", "> 100 µM (inactive)"),
    ("CCC(C)(O)c1cn(-c2cccc(S(=O)(=O)O)c2)nn1 (centres undefined)", "> 100 µM (inactive)"),
    ("O=C1/C(=C/c2ccc(O)c(O)c2)CCC/C1=C\\c1ccc(O)c(O)c1", "2.86 µM (inactive)"),
    ("CN(C)CCNC(=O)c1c(O)ccc2c1c1c(n2CCc2ccccc2)C(=O)c2ccccc2C1=O", "2.76 µM (inactive)"),
    ("N#Cc1c2ccc([N+](=O)[O-])cc2c(=O)n2c1[nH]c1ccc(C(F)(F)F)cc12", "42.7 µM (inactive)"),
    ("O=C(NCCNCCO)N/N=C/c1ccccc1", "> 100 µM (inactive)"),
    ("C#CCn1c(=O)c(C#N)c(O)c2cc3ccccc3nc21", "> 100 µM (inactive)"),
    ("O=[N+]([O-])c1ccc(SN=S=NSc2cccc(SN=S=NSc3ccc([N+](=O)[O-])cc3)c2)cc1", "37.8 µM (inactive)"),
    ("CC(=O)OCC(OC(C)=O)C(OC(C)=O)C(/C=N\\Nc1nc2ccccc2c(=O)[nH]1)=N\\Nc1nc2ccccc2c(=O)[nH]1 (centres undefined)", "> 100 µM (inactive)"),
    ("COC(=O)C(COC(=O)/C=C/c1ccc(OC(C)=O)c(OC(C)=O)c1)OC(=O)/C=C/c1ccc(OC(C)=O)c(OC(C)=O)c1 (centres undefined)", "16.8 µM (inactive)"),
    ("CCOC(=O)[C@H](CCCNC(=O)OC(C)(C)C)NCc1ccc(OC)c(OC)c1", "> 100 µM (inactive)"),
    ("Cc1cc(N(CCC#N)CCC#N)ccc1/C=N/NC(=O)c1cc(Cl)ccc1O", "> 100 µM (inactive)"),
    ("CC[C@H](C)C1=C(O)[N@+]2([O-])Oc3ccc(-c4c(O)c(O)c(-c5ccc(O)cc5)c(OC(C)=O)c4OC(C)=O)cc3O[C@]2([C@@H](C)CC)C(=O)N1O", "17.4 µM (inactive)"),
    ("CCCCC1=C(Br)C(=C(Br)Br)OC1=O", "2.42 µM (inactive)"),
    ("COc1cc(C(C#N)NNC(=O)c2ccccc2O)ccc1O (centres undefined)", "0.887 µM (active)"),
    ("O=C1c2ccccc2C(=O)c2sc(Nc3cc(Cl)ccc3Cl)nc21", "2.49 µM (inactive)"),
    ("O=C(NC1C=Nc2ccccc2NC1=O)c1ccccc1Cl (centres undefined)", "33.6 µM (inactive)"),
    ("CSc1ccc(NC(=O)CCl)cc1", "1.85 µM (inactive)"),
    ("CC1CNC(c2ccc(-c3nc(-c4ccc(C5=NC(C)CN5)cc4)nc(N(C)C)n3)cc2)=N1 (centres undefined)", "1.73 µM (inactive)"),
    ("CCOC(=O)C1C(=O)CC(C)(O)C(C(=O)OCC)C1c1ccc(OC)cc1 (centres undefined)", "> 100 µM (inactive)"),
    ("CC12CCC(CC(=O)/C1=C(/Br)I)C2(C)C (centres undefined)", "14.5 µM (inactive)"),
    ("C=C1C(=O)C2=C[C@H]1C[C@H](O)C(=O)[C@]1(C)CCCC(C)(C)[C@H]1C[C@H]2O", "1.59 µM (inactive)"),
    ("CC(=O)OC1COC(Nc2nc(NCc3ccccc3)n(C)c(=O)c2N=O)C(OC(C)=O)C1OC(C)=O (centres undefined)", "> 10 µM (inactive)"),
    ("CCO/C=C1\\N=C(c2ccccc2Br)OC1=O", "> 100 µM (inactive)"),
    ("C=CCn1c(=O)c(C)cn(/C(=C/C(=O)OCC)C(=O)OCC)c1=O", "16.5 µM (inactive)"),
    ("CN(C)CCCNC1=C(Cl)C(=O)c2c(O)ccc(O)c2C1=O", "1.59 µM (inactive)"),
    ("COc1cc2ccc3c4cc(OC)c(OC(C)C)cc4cnc3c2cc1OC", "> 100 µM (inactive)"),
    ("CC(C)C(NC(=O)C(Cc1ccccc1)NC(=O)[C@H]1CCC[C@H]1NC(=O)C(N)Cc1ccc(O)cc1)C(N)=O (some centres undefined)", "> 100 µM (inactive)"),
    ("CCCCc1c2c(nc3c1CCC/C3=C\\c1ccccc1)/C(=C/c1ccccc1)CCC2", "> 100 µM (inactive)"),
]
